Molecular target: T1, human CD28, full-length, expressed on transfected Expi293 cells (human, UniProt P10747 19-220)
T1 construct: whole, on cells
Test: flow cytometry, 100 nM, Expi293 cells with human CD28
quantity: MFI ratio to WT (ΔWT)

>  <binder>
variant ICOSL IgV-Fc fusion N52Q/N57F (Fc fusion) DTQEKEVRAMVGSDVELSCACPEGSRFDLNDVYVYWQTSESKTVVTYHIPQQSSLEFVDSRYRNRALMSPAGMLRGDFSLRLFNVTPQDEQKFHCLVLSQSLGFQEVLSVEVTLHVAANFSVGSGGGGSEPKSSDKTHTCPPCPAPEAEGAPSVFLFPPKPKDTLMISRTPEVTCVVVDVSHEDPEVKFNWYVDGVEVHNAKTKPREEQYNSTYRVVSVLTVLHQDWLNGKEYKCKVSNKALPAPIEKTISKAKGQPREPQVYTLPPSREEMTKNQVSLTCLVKGFYPSDIAVEWESNGQPENNYKTTPPVLDSDGSFFLYSKLTVDKSRWQQGNVFSCSVMHEALHNHYTQKSLSLSPG

>  <result>
5.9 fold

$$$$
